- Target desc: UniProt:A3EZJ3
- Sequence (A3EZJ3 whole entry): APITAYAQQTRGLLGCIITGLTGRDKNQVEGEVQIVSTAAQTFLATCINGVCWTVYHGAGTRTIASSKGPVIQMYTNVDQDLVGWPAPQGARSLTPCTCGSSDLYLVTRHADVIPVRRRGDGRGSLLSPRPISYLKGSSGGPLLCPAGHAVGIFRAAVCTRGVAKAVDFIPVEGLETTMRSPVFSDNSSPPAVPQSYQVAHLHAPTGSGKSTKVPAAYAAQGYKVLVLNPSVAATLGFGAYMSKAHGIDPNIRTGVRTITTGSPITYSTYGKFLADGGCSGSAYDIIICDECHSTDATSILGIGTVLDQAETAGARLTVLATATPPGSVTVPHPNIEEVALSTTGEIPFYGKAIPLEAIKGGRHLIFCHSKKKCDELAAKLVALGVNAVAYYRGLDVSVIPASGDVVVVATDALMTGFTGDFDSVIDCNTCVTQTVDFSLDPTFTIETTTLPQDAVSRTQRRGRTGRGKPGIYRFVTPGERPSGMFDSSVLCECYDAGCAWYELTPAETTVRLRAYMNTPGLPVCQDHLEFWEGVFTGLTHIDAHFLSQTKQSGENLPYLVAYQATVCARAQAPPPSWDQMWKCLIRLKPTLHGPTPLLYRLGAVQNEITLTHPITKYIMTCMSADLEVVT
Readout label: IC50 (µM)
Please reply with the bare figure in µM and do not write the unit itself.

Fill in the blank: the reported IC50 of Cc1ccccc1NC(=O)Cn1sc2ccccc2c1=O is ____.
3.9
